# maps each entry to its IC50
# target under test: Epidermal growth factor receptor (Homo sapiens)
# Sequence (P00533 whole entry): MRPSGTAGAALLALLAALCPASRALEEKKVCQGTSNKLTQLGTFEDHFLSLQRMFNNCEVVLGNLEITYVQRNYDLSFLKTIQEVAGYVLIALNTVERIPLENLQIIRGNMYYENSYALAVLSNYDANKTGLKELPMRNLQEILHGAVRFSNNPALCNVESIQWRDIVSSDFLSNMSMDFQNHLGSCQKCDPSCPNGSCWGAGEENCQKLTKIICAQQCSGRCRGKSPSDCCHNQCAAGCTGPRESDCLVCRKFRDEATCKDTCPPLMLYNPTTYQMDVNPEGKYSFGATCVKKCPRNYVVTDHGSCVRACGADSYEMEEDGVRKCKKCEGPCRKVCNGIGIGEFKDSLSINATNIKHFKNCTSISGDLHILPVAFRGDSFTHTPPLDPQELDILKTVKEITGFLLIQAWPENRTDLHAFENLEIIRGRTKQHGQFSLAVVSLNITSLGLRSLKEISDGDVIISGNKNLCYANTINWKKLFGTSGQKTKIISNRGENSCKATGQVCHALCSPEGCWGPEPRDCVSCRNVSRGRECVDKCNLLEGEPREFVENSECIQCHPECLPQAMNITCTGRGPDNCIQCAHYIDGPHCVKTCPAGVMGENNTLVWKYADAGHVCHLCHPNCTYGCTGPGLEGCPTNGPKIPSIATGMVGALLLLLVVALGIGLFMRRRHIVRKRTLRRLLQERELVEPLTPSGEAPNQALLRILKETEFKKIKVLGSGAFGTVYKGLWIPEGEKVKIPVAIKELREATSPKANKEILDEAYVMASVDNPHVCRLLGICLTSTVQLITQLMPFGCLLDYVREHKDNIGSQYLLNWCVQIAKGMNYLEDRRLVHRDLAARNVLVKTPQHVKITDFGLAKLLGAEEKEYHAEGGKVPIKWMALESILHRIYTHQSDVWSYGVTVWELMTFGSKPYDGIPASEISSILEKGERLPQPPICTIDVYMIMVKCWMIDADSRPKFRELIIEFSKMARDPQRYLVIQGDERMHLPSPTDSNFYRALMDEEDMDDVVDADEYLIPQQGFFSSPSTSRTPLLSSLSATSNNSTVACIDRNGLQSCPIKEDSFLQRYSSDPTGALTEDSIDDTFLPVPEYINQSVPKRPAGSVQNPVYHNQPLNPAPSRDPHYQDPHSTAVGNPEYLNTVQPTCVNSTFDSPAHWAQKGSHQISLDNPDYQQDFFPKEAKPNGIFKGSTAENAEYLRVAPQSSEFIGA
# test details: Inhibition of EGFR tyrosine kinase (unknown origin)
Provide the reading as a plain figure in nM.

[
  {
    "structure as smiles": "COc1cccc2c1C(=O)C1=C(C2=O)c2c(O)cc(CO)cc2[C@@H](O)[C@@H]1O",
    "metric": "IC50",
    "unit tag": "nM",
    "data value": 6.54
  },
  {
    "structure as smiles": "CCc1ccc(C2=C(O)C(=O)C(c3ccc(CC)cc3)=C(O)C2=O)cc1",
    "metric": "IC50",
    "unit tag": "nM",
    "data value": 30.2
  }
]

Param item = COc1ccc(-c2cc(=O)cc(-c3ccc(OC)cc3)o2)cc1 ; retrieve measured IC50.
0.15
